Reported values: Ki for human orexin 2 receptor (Homo sapiens (Human)), one per item.
Quick reminder: number only, in nM, skip the unit.

Solved entries:
| compound | Ki (nM) |
| --- | --- |
| C[C@@H]1[C@H]2C[C@@H](Oc3ccc(C(F)(F)F)c(F)n3)[C@H](C2)N1C(=O)c1ccccc1-c1ncccn1 | 1010 |
| CCOc1ccc(C)nc1C(=O)N1C(C)C2CC(Oc3ccc(C(F)(F)F)cn3)C1C2 (racemic) | 1600 |
| CC1C2CC(Oc3ccc(C(F)(F)F)cn3)C(C2)N1C(=O)c1cc(F)ccc1-c1ncccn1 (single isomer, unassigned) [Example 18B] | 879 |

Now examine the next entry.
Test system human orexin 2 receptor (Homo sapiens (Human)); read-out Ki; what value for Cc1ccc(-n2nccn2)c(C(=O)N2[C@H](C)[C@H]3C[C@@H](Oc4ccc(C(F)F)cn4)[C@@H]2C3)n1 ?
146

----------
system.name: rat orexin 1 receptor (Rattus norvegicus)
Response field label takes satisfied when Ki is strictly below 70 nM and not satisfied in all other cases.

Study these solved cases before continuing.
| compound | discrete.label |
| --- | --- |
| C[C@@H]1[C@@H]2CC[C@@H]([C@H](Oc3ccc(C(F)(F)F)cn3)C2)N1C(=O)c1ncccc1-n1nccn1 | satisfied |
| COC[C@@H]1[C@@H]2CC[C@@H]([C@H](Oc3ccc(C(F)(F)F)cn3)C2)N1C(=O)c1ccccc1-c1ncccn1 | not satisfied |
| C[C@@H]1[C@@H]2CC[C@@H]([C@H](Oc3ccc(C(F)(F)F)cn3)C2)N1C(=O)c1cccc(F)c1-c1ncccn1 | satisfied |
| O=C(c1cc(F)ccc1-n1nccn1)N1[C@H](CF)[C@@H]2CC[C@H]1[C@H](Oc1ccc(C(F)(F)F)cn1)C2 | not satisfied |

Let's switch to this compound now.
Record O=C(c1cccc(F)c1-c1ncccn1)N1[C@H](CF)[C@@H]2CC[C@H]1[C@H](Oc1ccc(C(F)(F)F)cn1)C2 : is its Ki strictly below 70 nM?
satisfied

----------
Reported values: pKi for human orexin 2 receptor (Homo sapiens (Human), UniProt O43614), one per item.
Kindly note that pKi refers to -log10 of the concentration in mol/L and answer with the value alone.

Solved entries:
| molecule | pKi |
| --- | --- |
| Cc1ccc(-n2nccn2)c(C(=O)N2C(C)C3CC(Nc4cnc(C(F)(F)F)cn4)C2C3)n1 (single isomer, unassigned) [Example 69] | 6.46 |
| C[C@@H]1[C@H]2C[C@@H](Oc3ccc(C(F)(F)F)cn3)[C@H](C2)N1C(=O)c1c(F)cccc1-n1nccn1 (relative stereo) [Example 30] | 6.16 |
| C[C@@H]1[C@H]2C[C@@H](Oc3cnc4cc(F)ccc4n3)[C@H](C2)N1C(=O)c1cccc(F)c1-n1nccn1 (relative stereo) [Example 187] | 6.87 |
| C[C@@H]1[C@H]2C[C@@H](Nc3ccc(C(F)(F)F)cn3)[C@H](C2)N1C(=O)c1ncccc1-n1nccn1 (relative stereo) [Example 64] | 6.49 |

Now examine the next entry.
Test system human orexin 2 receptor (Homo sapiens (Human), UniProt O43614); read-out pKi; what value for CC1C2CC(Oc3ccc(C(F)(F)F)cn3)C(C2)N1C(=O)c1cccc(F)c1-c1ncccn1 (single isomer, unassigned) [Example 8] ?
5.96

----------
Measured log10 of Ki, listed per entry for reference.
system.name: human orexin 1 receptor (Homo sapiens (Human))
Sequence (O43613 whole entry): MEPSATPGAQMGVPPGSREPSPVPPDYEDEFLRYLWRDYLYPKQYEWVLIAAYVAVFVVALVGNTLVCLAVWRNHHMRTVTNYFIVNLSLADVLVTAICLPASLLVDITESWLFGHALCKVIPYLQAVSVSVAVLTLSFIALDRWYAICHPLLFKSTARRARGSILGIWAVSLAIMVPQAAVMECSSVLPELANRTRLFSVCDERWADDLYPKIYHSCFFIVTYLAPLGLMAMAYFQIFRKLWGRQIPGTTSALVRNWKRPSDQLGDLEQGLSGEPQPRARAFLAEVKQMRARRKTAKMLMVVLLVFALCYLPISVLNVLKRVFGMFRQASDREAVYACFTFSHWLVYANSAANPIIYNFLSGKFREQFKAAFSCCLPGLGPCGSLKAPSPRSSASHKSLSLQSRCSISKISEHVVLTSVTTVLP
Scale type: logarithmic (base 10). Underlying Ki unit: nM.

Solved entries:
| molecule | log10 of Ki |
| --- | --- |
| Cc1cnc(C(=O)N2C(C)C3CC(Nc4ccc(C(F)(F)F)cn4)C2C3)c(-c2ncccn2)c1 (racemic) | 1.72 |
| C[C@@H]1[C@@H]2CC[C@@H]([C@H](Oc3ccc(C(F)(F)F)cn3)C2)N1C(=O)c1cccc(F)c1-c1ncccn1 | 1.15 |
| C[C@@H]1[C@H]2C[C@@H](Oc3ccc(C(F)(F)F)cn3)[C@H](C2)N1C(=O)c1ccccc1-c1cccc(F)n1 | 0.70 |
| [2H]C1([2H])[C@H]2C[C@@H]([C@@H]1Oc1ccc(Cl)cn1)N(C(=O)c1cccc(F)c1-n1nccn1)[C@@H]2C | 0.48 |
| C[C@@H]1[C@H]2C[C@@H](Oc3ccc(C(F)(F)F)cn3)[C@H](C2)N1C(=O)c1ncccc1-c1ncccn1 (relative stereo) | 0.90 |

Now examine the next entry.
# query: log10 of Ki of entry Cc1ccc(-c2ncccn2)c(C(=O)N2[C@H](C)[C@H]3C[C@@H](Nc4ccc(C(F)(F)F)cn4)[C@@H]2C3)n1
1.28
